Documented % Protection across a set of compounds
# System: hot plate latency
# protocol_notes: hot plate assay (central analgesic)
# Type: in vivo, mice
# conditions: after 30 min; 10 mg/kg indomethacin mol equivalent i.p.
# Method: The % potency was calculated by equ. (4) (Table 2). […] % Potency = % protection of the tested compound x 100 ……. (4) […] Central analgesic (hot plate) testing The standard hot plate technique was undertaken by in vivo standard hot plate test [ 1,2]. […] suspended in sterile/distilled water by the ai d of two drops of Tween 80, and recording the reaction time in seconds for forepaw licking or jumping. […] Response latencies were measured 30, 60, 90 and 120 min. after the application. […]
readout_kind: % Protection (%)

compound: COc1ccc2c(c1)c(CC(=O)OCc1cn(-c3ccc(Cl)cc3)nn1)c(C)n2C(=O)c1ccc(Cl)cc1
quantitative_result: 2.4

compound: CC(C)Cc1ccc(C(C)C(=O)OCc2cn(-c3ccc(F)cc3)nn2)cc1 (stereo not shown)
quantitative_result: 112.1

compound: COc1ccc2c(c1)c(CC(=O)OCc1cn(-c3ccc([N+](=O)[O-])cc3)nn1)c(C)n2C(=O)c1ccc(Cl)cc1
quantitative_result: 56.6

compound: CC(C)Cc1ccc(C(C)C(=O)OCc2cn(-c3ccccc3Cl)nn2)cc1 (stereo not shown)
quantitative_result: 79.2

compound: COc1ccc2c(c1)c(CC(=O)O)c(C)n2C(=O)c1ccc(Cl)cc1 [Indo, Indomethacin, reference compound]
quantitative_result: 87.1

compound: COc1ccccc1-n1cc(COC(=O)C(C)c2ccc(CC(C)C)cc2)nn1 (stereo not shown)
quantitative_result: 88.8

compound: COc1ccc2c(c1)c(CC(=O)OCc1cn(-c3ccccc3Cl)nn1)c(C)n2C(=O)c1ccc(Cl)cc1
quantitative_result: 82.5
